TGT: T1, rat CD47 (rat, UniProt P97829 19-303)
T1 construct: whole, on cells; also called CD47 on rat RBCs
T1 sequence (looked up): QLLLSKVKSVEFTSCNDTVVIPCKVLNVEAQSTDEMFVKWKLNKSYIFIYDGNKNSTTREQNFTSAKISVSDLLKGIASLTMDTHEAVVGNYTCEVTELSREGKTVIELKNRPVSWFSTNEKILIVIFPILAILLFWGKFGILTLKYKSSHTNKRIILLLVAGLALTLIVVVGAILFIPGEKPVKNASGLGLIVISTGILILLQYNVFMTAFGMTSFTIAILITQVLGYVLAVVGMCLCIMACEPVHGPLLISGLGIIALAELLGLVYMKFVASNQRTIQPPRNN
EXPERIMENTAL_PROTOCOL: FACS, rat RBCs, supernatant 10 ng/ml
Would you mind telling me the reported mean fluorescence relative to chimera of each entry?
Please reply with the value in numeric form only.

Ask | Reported mean fluorescence relative to chimera, binder Clone 15 (pVxK7b-037-hum15-LC / pVxK7b-037-hum15-HC) (antibody, human IgG1, kappa, V domains shown) VH: QVQLQESGPGLVKPSQTLSLTCTVSGYTFTNYYVFWVRQARGQRLEWIGDINPVNGDTNFNEKFKNRLTISKDTSKNQVVLTMTNMDPVDTATYYCARGGYTMDYWGQGTLVTVSS VL: AIQLTQSPSSLSASVGDRVTITCRSSQSLVHSNGNTYLHWYQQKPGQAPRLLIYKVSYRFSGVPSRFSGSGSGTEFTLTISSLQPDDFATYYCSQNTHVPRTFGQGTKVEIKR : ____
Reply | 2.4

Ask | Moving on to the next binder: Clone 10 (pVxK7b-037-hum10-LC / pVxK7b-037-hum10-HC) (antibody, human IgG1, kappa, V domains shown) VH: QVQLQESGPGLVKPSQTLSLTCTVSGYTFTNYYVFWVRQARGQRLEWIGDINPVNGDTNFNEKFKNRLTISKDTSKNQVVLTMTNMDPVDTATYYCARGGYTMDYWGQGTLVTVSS VL: DIVMTQTPLSLPVTPGEPASISCRSSQSLVHSNGNTYLHWYLQKPGQSPQLLIYKVSYRFSGVPDRFSGSGSGTDFTLKISRVEAEDVGVYYCSQNTHVPRTFGQGTKVEIKR
Reply | 2.9

Ask | Moving on to the next binder: Clone 6 (pVxK7b-037-hum06-LC / pVxK7b-037-hum06-HC) (antibody, human IgG1, kappa, V domains shown) VH: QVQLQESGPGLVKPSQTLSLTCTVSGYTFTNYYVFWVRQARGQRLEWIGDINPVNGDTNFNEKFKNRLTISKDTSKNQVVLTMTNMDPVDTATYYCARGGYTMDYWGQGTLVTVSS VL: DIQMTQSPSSLSASVGDRVTITCRSSQSLVHSNGNTYLHWYLQKPGQSPQLLIYKVSYRFSGIPARFSGSGSGTEFTLTISSLQSEDFAVYYCSQNTHVPRTFGQGTKVEIKR
Reply | 2.1
